Numbers sourced from patent US10954219B2.

Structures can show the parent of a compound that is named as a salt.
Measured pIC50 on PRC2-EZH2 (WT EZH2) (Homo sapiens) follows.
Sequence (Q15910 whole entry): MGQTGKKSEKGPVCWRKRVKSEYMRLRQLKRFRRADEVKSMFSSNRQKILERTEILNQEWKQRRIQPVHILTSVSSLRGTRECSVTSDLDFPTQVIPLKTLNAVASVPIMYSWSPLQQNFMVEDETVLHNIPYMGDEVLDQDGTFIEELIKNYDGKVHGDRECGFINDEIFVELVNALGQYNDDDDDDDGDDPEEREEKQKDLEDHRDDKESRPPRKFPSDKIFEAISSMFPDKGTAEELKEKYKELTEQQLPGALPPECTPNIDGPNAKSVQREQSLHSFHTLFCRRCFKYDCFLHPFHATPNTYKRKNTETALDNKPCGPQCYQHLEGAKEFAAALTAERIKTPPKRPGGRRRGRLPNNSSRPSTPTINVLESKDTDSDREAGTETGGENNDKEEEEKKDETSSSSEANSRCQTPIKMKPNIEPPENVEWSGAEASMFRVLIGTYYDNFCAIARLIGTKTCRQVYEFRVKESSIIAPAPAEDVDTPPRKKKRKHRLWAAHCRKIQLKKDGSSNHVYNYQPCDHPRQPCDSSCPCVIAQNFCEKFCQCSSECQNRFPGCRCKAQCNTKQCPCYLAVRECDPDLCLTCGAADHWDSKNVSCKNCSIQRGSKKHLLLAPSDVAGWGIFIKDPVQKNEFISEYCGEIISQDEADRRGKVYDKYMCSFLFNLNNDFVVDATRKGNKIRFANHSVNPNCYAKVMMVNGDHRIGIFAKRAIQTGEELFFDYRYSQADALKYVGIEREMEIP
Sequence (O75530 whole entry partner): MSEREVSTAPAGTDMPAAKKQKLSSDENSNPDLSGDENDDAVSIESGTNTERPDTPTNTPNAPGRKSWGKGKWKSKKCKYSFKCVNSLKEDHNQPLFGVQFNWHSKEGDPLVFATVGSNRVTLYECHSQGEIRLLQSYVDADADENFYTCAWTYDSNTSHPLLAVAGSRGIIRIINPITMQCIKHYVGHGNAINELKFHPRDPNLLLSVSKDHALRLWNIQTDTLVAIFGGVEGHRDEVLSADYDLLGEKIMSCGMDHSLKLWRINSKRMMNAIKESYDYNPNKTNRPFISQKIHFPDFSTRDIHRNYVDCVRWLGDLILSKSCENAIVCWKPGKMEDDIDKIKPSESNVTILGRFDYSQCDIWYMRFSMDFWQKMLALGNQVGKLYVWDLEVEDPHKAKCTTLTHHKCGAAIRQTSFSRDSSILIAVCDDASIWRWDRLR
Sequence (Q15022 whole entry partner): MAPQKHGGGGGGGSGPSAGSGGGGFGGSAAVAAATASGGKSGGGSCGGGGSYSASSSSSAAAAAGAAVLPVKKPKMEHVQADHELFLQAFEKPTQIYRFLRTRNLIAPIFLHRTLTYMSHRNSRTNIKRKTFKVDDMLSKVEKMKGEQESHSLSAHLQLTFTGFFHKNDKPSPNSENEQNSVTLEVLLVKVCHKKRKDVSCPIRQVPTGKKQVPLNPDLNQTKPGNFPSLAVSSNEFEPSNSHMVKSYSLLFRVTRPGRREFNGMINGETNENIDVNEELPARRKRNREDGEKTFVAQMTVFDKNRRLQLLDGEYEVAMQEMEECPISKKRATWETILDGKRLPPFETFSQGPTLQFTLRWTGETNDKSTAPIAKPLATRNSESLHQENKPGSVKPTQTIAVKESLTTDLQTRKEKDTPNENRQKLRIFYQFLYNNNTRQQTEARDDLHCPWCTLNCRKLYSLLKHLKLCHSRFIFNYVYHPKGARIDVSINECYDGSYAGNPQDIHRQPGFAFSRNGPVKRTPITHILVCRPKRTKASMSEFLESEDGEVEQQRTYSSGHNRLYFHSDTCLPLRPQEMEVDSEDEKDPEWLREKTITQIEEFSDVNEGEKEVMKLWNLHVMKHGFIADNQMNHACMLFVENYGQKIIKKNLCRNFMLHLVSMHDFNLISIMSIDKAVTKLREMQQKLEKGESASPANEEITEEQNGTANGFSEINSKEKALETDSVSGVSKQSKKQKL
Note on pIC50: it is the negative log10 of concentration, concentration in mol/L.

| COMPOUND | pIC50 |
| --- | --- |
| Cc1cc(C)c(CNC(=O)c2cc(-c3cncs3)c3c(c2C)OC(C)([C@H]2CC[C@H](N(C)C)CC2)O3)c(=O)[nH]1 (relative stereo) [Example 70, hydrochloride] | 7.59 |
| CCCc1cc(C)[nH]c(=O)c1CNC(=O)c1cc(Br)c2c(c1C)O[C@@](C)(C1CCN(CC)CC1)O2 [Example 12] | 7.55 |
| Cc1cc(C)c(CNC(=O)c2cc(Br)c3c(c2C)OC(C)(C2CCN(C)C2)O3)c(=O)[nH]1 (stereo not drawn) [Example 6] | 7.41 |
| CCN(C)[C@H]1CC[C@H](C2(C)Oc3c(Br)cc(C(=O)NCc4c(C)cc(C)[nH]c4=O)c(C)c3O2)CC1 (relative stereo) [Example 20] | 7.77 |
| Cc1cc(C)c(CNC(=O)c2cc(Cl)c3c(c2C)OC(C)([C@@H]2CC[C@@H](N(C)C)CO2)O3)c(=O)[nH]1 (stereo partly drawn) [Example 38] | 7.92 |

Now consider the entry below.
Request: What does the record list as pIC50 for CC(=O)c1cc(C(=O)NCc2c(C)cc(C)[nH]c2=O)c(C)c2c1OC(C)([C@H]1CC[C@H](N(C)C)CC1)O2 (relative stereo) [Example 72, hydrochloride] ?
Result: 7.77
